- assayed.target: FPR2 (Homo sapiens, UniProt P25090)
- Construct: expressed in transfected cells
- Sequence (P25090 1-351): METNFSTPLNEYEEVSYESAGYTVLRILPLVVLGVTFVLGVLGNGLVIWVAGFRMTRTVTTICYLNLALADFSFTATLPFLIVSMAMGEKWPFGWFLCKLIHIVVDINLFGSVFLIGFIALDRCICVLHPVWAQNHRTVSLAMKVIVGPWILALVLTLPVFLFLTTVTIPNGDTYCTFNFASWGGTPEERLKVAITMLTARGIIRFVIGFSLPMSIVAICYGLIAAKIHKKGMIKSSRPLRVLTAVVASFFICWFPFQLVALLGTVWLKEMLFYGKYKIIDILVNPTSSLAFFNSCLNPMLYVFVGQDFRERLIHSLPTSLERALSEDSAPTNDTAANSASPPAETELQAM
- protocol.summary: Ca2+ mobilization in FPR2-transfected HL60 cells
- Format: cell-based
- cond: % of the response induced by 5 nM WKYMVm
Entries and their measured efficacy (%) HL60‐FPR2 follow.

>  <compound>
CCCCCCn1c(=O)c(-c2cccc(OC)c2)cn1-c1ccccc1 [Compound 13f]

>  <efficacy (%) HL60‐FPR2>
90

$$$$
>  <compound>
COc1cccc(Nc2c(C(C)=O)c(C)nn(CC(=O)Nc3ccc(Br)cc3)c2=O)c1 [EC10, reference compound]

>  <efficacy (%) HL60‐FPR2>
60

$$$$
>  <compound>
COc1cccc(Cc2c(C)c(C)nn(CC(=O)Nc3ccc(Br)cc3)c2=O)c1 [EC3, reference compound]

>  <efficacy (%) HL60‐FPR2>
80

$$$$
>  <compound>
COc1cccc(Nc2ccnn2CC(=O)Nc2ccc(Br)cc2)c1

>  <efficacy (%) HL60‐FPR2>
60

$$$$
